Parameter Fold Difference (Curve IC50): see the listing below.
Molecular target: F protein of wild type RSV A/Long (respiratory syncytial virus strain …, UniProt P12568 26-574)
Sequence (P12568 26-574): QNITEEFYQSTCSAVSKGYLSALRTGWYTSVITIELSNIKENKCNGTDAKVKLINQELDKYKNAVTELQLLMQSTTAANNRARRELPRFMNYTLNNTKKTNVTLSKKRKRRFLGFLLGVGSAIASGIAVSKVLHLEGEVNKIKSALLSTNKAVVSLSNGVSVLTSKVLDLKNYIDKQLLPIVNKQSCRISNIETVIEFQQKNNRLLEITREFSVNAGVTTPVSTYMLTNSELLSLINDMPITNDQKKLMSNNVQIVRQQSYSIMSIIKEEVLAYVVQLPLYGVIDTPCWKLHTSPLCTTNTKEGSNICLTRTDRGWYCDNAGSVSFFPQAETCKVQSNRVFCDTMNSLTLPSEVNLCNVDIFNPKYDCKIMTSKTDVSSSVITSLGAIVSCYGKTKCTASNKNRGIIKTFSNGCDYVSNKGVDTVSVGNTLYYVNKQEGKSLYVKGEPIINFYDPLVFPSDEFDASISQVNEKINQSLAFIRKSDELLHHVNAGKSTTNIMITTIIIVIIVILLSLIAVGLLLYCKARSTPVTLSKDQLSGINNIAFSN
Test: cell-based or functional assay
Report the figure along with its unit, number first.

Below are worked cases with known answers.
- binder: "P12f2 (monoclonal antibody) (antibody, V domains shown, mAb with framework and constant regions of SYNAGIS; also called Pf12) VH: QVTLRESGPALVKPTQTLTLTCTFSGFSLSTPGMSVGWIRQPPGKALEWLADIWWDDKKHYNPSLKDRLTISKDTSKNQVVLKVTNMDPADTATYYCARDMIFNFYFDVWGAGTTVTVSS VL: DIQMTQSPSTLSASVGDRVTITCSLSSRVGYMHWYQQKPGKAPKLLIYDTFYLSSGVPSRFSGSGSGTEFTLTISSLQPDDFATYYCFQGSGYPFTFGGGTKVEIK"
  propertyName: "Fold Difference (Curve IC50)"
  reading: "20 fold"
- binder: "P12f4 (Fab fragment) (Fab, V domains shown, Fab) VH: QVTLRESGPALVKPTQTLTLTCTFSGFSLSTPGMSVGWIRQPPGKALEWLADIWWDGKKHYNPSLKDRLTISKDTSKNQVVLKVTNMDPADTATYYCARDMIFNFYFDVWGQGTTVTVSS VL: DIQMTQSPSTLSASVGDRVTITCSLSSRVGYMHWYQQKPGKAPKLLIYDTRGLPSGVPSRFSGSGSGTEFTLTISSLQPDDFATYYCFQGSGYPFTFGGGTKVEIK"
  propertyName: "Fold Difference (Curve IC50)"
  reading: "10 fold"

Query string: Complete the entry with Fold Difference (Curve IC50) for A1e9 (monoclonal antibody) (antibody, V domains shown, mAb with framework and constant regions of SYNAGIS; also called Ale9) VH: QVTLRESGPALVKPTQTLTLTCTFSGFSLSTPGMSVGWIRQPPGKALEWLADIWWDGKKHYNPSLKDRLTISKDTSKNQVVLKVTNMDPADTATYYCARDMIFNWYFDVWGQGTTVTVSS VL: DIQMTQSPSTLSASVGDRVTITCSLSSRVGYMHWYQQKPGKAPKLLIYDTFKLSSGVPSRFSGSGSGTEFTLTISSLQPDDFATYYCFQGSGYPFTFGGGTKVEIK
Result string: 7 fold

Ref: patent US20030091584A1
